Tested on: BT-474
protocol: normalised response (% of control), CellTiter-Glo; higher = more viable cells (100 = DMSO, 0 = benzethonium chloride kill control)
protocol conditions: incubation time: 72 h
Reported normalised response values for the following compounds.

compound="CN1CCN(CCOc2cc(OC3CCOCC3)c3c(Nc4c(Cl)ccc5c4OCO5)ncnc3c2)CC1 [Saracatinib] (1000 nM)" assay_value=71.1%

Item CO[C@H]1C[C@@H]2CC[C@@H](C)[C@@](O)(O2)C(=O)C(=O)N2CCCC[C@H]2C(=O)O[C@H]([C@H](C)C[C@@H]2CC[C@@H](OCCO)[C@H](OC)C2)CC(=O)[C@H](C)/C=C(\C)[C@@H](O)[C@@H](OC)C(=O)[C@H](C)C[C@H](C)/C=C/C=C/C=C/1C [Everolimus] (0.1 nM) has what recorded normalised response?
92%

So what does the record say about normalised response for CNNCc1ccc(C(=O)NC(C)C)cc1 [Procarbazine] (10 nM) ?
97.9%

normalised response lookup needed for COc1ccc(-c2ccc3c(N4CCOC[C@@H]4C)nc(N4CCOC[C@@H]4C)nc3n2)cc1CO [AZD8055] (1 nM) , thanks.
90.8%

What does the record list as normalised response for O=C1NC(=O)[C@@H](c2cn3c4c(cccc24)CCC3)[C@@H]1c1c[nH]c2ccccc12 [Tivantinib] (1 nM) ?
107%

###

// normalised response lookup, one value per entry
Tested on: MDA-MB-231
protocol: normalised response (% of control), CellTiter-Glo; higher = more viable cells (100 = DMSO, 0 = benzethonium chloride kill control)
protocol conditions: incubation time: 72 h
Number only, in %; omit the unit.

Find the recorded normalised response belonging to CC(C)(C#N)c1cc(Cn2cncn2)cc(C(C)(C)C#N)c1 [Anastrozole] (100 nM) and report it.
97.4

Returns the measured normalised response for the input molecule. Input: Nc1nc(OCc2cc(Br)cs2)c2[nH]cnc2n1 [Lomeguatrib] (100 nM)
98.2

I would be grateful if you could share the reported normalised response for CO[C@H]1C[C@@H]2CC[C@@H](C)[C@@](O)(O2)C(=O)C(=O)N2CCCC[C@H]2C(=O)O[C@H]([C@H](C)C[C@@H]2CC[C@@H](OCCO)[C@H](OC)C2)CC(=O)[C@H](C)/C=C(\C)[C@@H](O)[C@@H](OC)C(=O)[C@H](C)C[C@H](C)/C=C/C=C/C=C/1C [Everolimus] (1 nM) .
82.9

Quick one: normalised response of c1ccc([C@H]2CN3CCSC3=N2)cc1 [Levamisole] (100 nM) ?
103

What value of measured normalised response is listed for O=C(O)CCCc1ccc(N(CCCl)CCCl)cc1 [Chlorambucil] (100 nM) ?
106

###

System: HDQ-P1
protocol: normalised viability (% of control), CellTiter-Blue; higher = more viable cells (about 100 = DMSO control)
protocol conditions: 3 nM; incubation time: 72 h
Recorded normalised viability, one value per entry.

chem_smiles=Cn1cncc1[C@@](N)(c1ccc(Cl)cc1)c1ccc2c(c1)c(-c1cccc(Cl)c1)cc(=O)n2C assay_value=74.6%
chem_smiles=CCCCCCCCc1ccc(CCC(N)(CO)CO)cc1 assay_value=116%
chem_smiles=CC(C)(C#N)c1cc(Cn2cncn2)cc(C(C)(C)C#N)c1 assay_value=102%

Here is the next item to consider.
Entry CN1CCN(CCOc2cc(OC3CCOCC3)c3c(Nc4c(Cl)ccc5c4OCO5)ncnc3c2)CC1 has what normalised viability?
118%

###

System: CAL-85-1
protocol: drug sensitivity score (DSS), CellTiter-Glo (DSS (AUC-based score)); higher = stronger drug effect (viability inhibition or cytotoxicity); extreme values may be limits of the assay
protocol conditions: incubation time: 72 h
attribute measured: drug sensitivity score
Answer field: number only, no words.

Completed entries (count: 5):
molecule=CC[C@]1(O)C[C@H]2CN(CCc3c([nH]c4ccccc34)[C@@](C(=O)OC)(c3cc4c(cc3OC)N(C=O)[C@H]3[C@@](O)(C(=O)OC)[C@H](OC(C)=O)[C@]5(CC)C=CCN6CC[C@]43[C@@H]65)C2)C1 attribute_measured="drug sensitivity score" assay_value=19.2
molecule=COc1ccc(-c2ccc3c(N4CCOC[C@@H]4C)nc(N4CCOC[C@@H]4C)nc3n2)cc1CO attribute_measured="drug sensitivity score" assay_value=22.2
molecule=Nc1ncnc2c1c(COc1cccc(Cl)c1)nn2C1CCOCC1 attribute_measured="drug sensitivity score" assay_value=0
molecule=Cn1cncc1[C@@](N)(c1ccc(Cl)cc1)c1ccc2c(c1)c(-c1cccc(Cl)c1)cc(=O)n2C attribute_measured="drug sensitivity score" assay_value=1.05
molecule="CN(C)CCN1C(=O)c2cccc3cc(N)cc(c23)C1=O [Amonafide]" attribute_measured="drug sensitivity score" assay_value=2.16

For CAL-85-1, provide drug sensitivity score of Cc1ccc(NC(=O)c2ccc(CN3CCN(C)CC3)cc2)cc1Nc1nccc(-c2cccnc2)n1 please.
0

###

System: BT-549
protocol: normalised response (% of control), CellTox Green; higher = less cell death (100 = DMSO, 0 = benzethonium chloride kill control)
protocol conditions: incubation time: 72 h
Catalogue of normalised response readings, one per entry.
Quick reminder: number only, in %, skip the unit.

compound="NS(=O)(=O)OC[C@@H]1C[C@@H](n2ccc3c(N[C@H]4CCc5ccccc54)ncnc32)C[C@@H]1O [Pevonedistat] (10000 nM)" attribute_measured="normalised response" assay_value=78.3

# query: normalised response of entry O=C1NC(=O)[C@@H](c2cn3c4c(cccc24)CCC3)[C@@H]1c1c[nH]c2ccccc12 [Tivantinib] (10 nM)
104

Quick check: normalised response of CO[C@H]1C[C@@H]2CC[C@@H](C)[C@@](O)(O2)C(=O)C(=O)N2CCCC[C@H]2C(=O)O[C@H]([C@H](C)C[C@@H]2CC[C@@H](OCCO)[C@H](OC)C2)CC(=O)[C@H](C)/C=C(\C)[C@@H](O)[C@@H](OC)C(=O)[C@H](C)C[C@H](C)/C=C/C=C/C=C/1C [Everolimus] (100 nM) ?
100

I am curious: what normalised response value has been reported for O=C1NC(=O)[C@@H](c2cn3c4c(cccc24)CCC3)[C@@H]1c1c[nH]c2ccccc12 [Tivantinib] (100 nM) ?
106

Fill in: normalised response of Nc1ncnc2c1c(COc1cccc(Cl)c1)nn2C1CCOCC1 (10000 nM) is ___
110

Which normalised response is reported for this compound? CN(C)CCN1C(=O)c2cccc3cc(N)cc(c23)C1=O [Amonafide] (100 nM)
106

Endpoint output: normalised response of COc1ccccc1S(=O)(=O)Nc1ccc2c(c1)CN(C)C(=O)N2 [PFI-1] (10000 nM) . Value?
108

###

System: HCC1937
protocol: normalised response (% of control), CellTiter-Glo; higher = more viable cells (100 = DMSO, 0 = benzethonium chloride kill control)
protocol conditions: incubation time: 72 h
# normalised response listing for each entry below
All answers are understood in %, so give the number only.

compound="CCCCCCCCc1ccc(CCC(N)(CO)CO)cc1 [Fingolimod] (10 nM)" quantity_unit=% assay_value=100
compound="Nc1nc(OCc2cc(Br)cs2)c2[nH]cnc2n1 [Lomeguatrib] (10 nM)" quantity_unit=% assay_value=98.9
compound="CCCCCCCCc1ccc(CCC(N)(CO)CO)cc1 [Fingolimod] (1 nM)" quantity_unit=% assay_value=95.9

// normalised response lookup, key: C/C(=C\c1csc(C)n1)[C@@H]1C[C@@H]2O[C@]2(C)CCC[C@H](C)[C@H](O)[C@@H](C)C(=O)C(C)(C)[C@@H](O)CC(=O)O1 [Patupilone] (100 nM)
75.9

###

drug sensitivity score overview
System: CAL-120
protocol: drug sensitivity score (DSS), CellTiter-Glo (DSS (AUC-based score)); higher = stronger drug effect (viability inhibition or cytotoxicity); extreme values may be limits of the assay
protocol conditions: incubation time: 72 h
Give the figure by itself; no unit, no explanation.

Sample records with drug sensitivity score:
chem_smiles=CC[C@]1(O)C[C@H]2CN(CCc3c([nH]c4ccccc34)[C@@](C(=O)OC)(c3cc4c(cc3OC)N(C=O)[C@H]3[C@@](O)(C(=O)OC)[C@H](OC(C)=O)[C@]5(CC)C=CCN6CC[C@]43[C@@H]65)C2)C1 attribute_measured="drug sensitivity score" assay_value=11.1
chem_smiles=NS(=O)(=O)OC[C@@H]1C[C@@H](n2ccc3c(N[C@H]4CCc5ccccc54)ncnc32)C[C@@H]1O attribute_measured="drug sensitivity score" assay_value=7.98
chem_smiles=CN(C)C[C@@H]1CCn2cc(c3ccccc32)C2=C(C(=O)NC2=O)c2cn(c3ccccc23)CCO1 attribute_measured="drug sensitivity score" assay_value=0
chem_smiles=Cn1c(=O)n(-c2ccc(C(C)(C)C#N)cc2)c2c3cc(-c4cnc5ccccc5c4)ccc3ncc21 attribute_measured="drug sensitivity score" assay_value=17.9
chem_smiles=CC(C)c1c(C(=O)Nc2ccccc2)c(-c2ccccc2)c(-c2ccc(F)cc2)n1CC[C@@H](O)C[C@@H](O)CC(=O)O attribute_measured="drug sensitivity score" assay_value=4.42

We now examine a further compound.
Returns the measured drug sensitivity score for the input compound. Input: C/C(=C\c1csc(C)n1)[C@@H]1C[C@@H]2O[C@]2(C)CCC[C@H](C)[C@H](O)[C@@H](C)C(=O)C(C)(C)[C@@H](O)CC(=O)O1
5.48
